The measured values listed here are drawn from patent EP4603105A1.

Some compounds, each annotated with its measured Kd.
- EXPERIMENTAL SYSTEM: GDP-bound KRAS wild-type protein (Homo sapiens)
- Sequence (P01116 1-188 isoform P01116-2): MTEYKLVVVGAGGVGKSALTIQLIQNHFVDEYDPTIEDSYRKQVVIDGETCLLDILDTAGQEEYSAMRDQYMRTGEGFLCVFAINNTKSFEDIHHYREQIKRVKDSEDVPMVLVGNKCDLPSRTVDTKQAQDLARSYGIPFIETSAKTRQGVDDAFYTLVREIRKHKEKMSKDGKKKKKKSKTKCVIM
- METHOD NOTES: Binding to KRAS by surface plasmon resonance (SPR), dissociation constant KD
- CONDITION SUMMARY: Single Cycle Kinetics, 1:1 binding model
Where a SMILES comes first, the peptide text is derived from it. Bridges are numbered along the chain shown (N, C = ends). [ ]: non-standard residue; d: D form. The star is where a group is joined. hPhe(3-Cl-4-CF3) = N[C@@H](CCc1ccc(C(F)(F)F)c(Cl)c1)C(=O)O; NPrPhe(4-CF3) = CCCN[C@@H](Cc1ccc(C(F)(F)F)cc1)C(=O)O; NMeGly(cPent) = CN[C@H](C(=O)O)C1CCCC1; NMeD = CN[C@@H](CC(=O)O)C(=O)O; NMeNva = CCC[C@H](NC)C(=O)O; Morpholide = C1CN(*)CCO1; Ac4c = NC1(C(=O)O)CCC1; NPrGly = CCCNCC(=O)O; Sar = CNCC(=O)O
Give the quantity in nM, number only.

Here are 4 compounds together with their reported answers.
For CCO[C@@H]1C[C@H]2C(=O)NC3(CCC3)C(=O)N(C)[C@@H](C3CCCC3)C(=O)N(C)[C@H](C(=O)N3CCOCC3)CC(=O)N(C)[C@@H](Cc3ccccc3C#N)C(=O)N[C@@H]([C@@H](C)CC)C(=O)N(C)CC(=O)N(C)[C@H]3CCCCCN(C3=O)[C@@H](Cc3ccc(F)cc3)C(=O)N(C)CC(=O)N[C@@H](CCc3cc(F)c(C(F)(F)F)c(F)c3)C(=O)N2C1 [PP1185] , write its Kd. 0.5

Tell me measured Kd for CCCCCC[C@H]1C(=O)N[C@@H]([C@@H](C)CC)C(=O)N(C)CC(=O)N(C)[C@H]2C/C=C\CCN(C2=O)[C@@H](Cc2ccc(C(F)(F)F)cc2)C(=O)N(C)CC(=O)N[C@@H](CCc2cc(F)c(C(F)(F)F)c(F)c2)C(=O)N2C[C@H](OCC)C[C@H]2C(=O)NC2(CCC2)C(=O)N(C)[C@@H](C2CCCC2)C(=O)N(C)[C@H](C(=O)N(C)C)CC(=O)N1C [PP1242] please. 0.076

For the compound CCO[C@@H]1C[C@H]2C(=O)NC3(CCC3)C(=O)N(C)[C@@H](C(CC)CC)C(=O)N(C)[C@H](C(=O)N(C)C)CC(=O)N(C)[C@@H](CC)C(=O)N[C@@H]([C@@H](C)CC)C(=O)N(C)CC(=O)N(C)[C@H]3C/C=C\CCN(C3=O)[C@@H](Cc3ccc(C(F)(F)F)cc3)C(=O)N(C)CC(=O)N[C@@H](CCc3ccc(C(F)(F)F)c(OC)c3)C(=O)N2C1 [PP1207] , give its measured Kd value. 0.21

Please list Kd recorded for the compound CCCC[C@H]1C(=O)N[C@@H]([C@@H](C)CC)C(=O)N(C)CC(=O)N(C)[C@H]2C/C=C\CCN(C2=O)[C@@H](Cc2ccc(C(F)(F)F)cc2)C(=O)N(C)CC(=O)N[C@@H](CCc2cc(F)c(C(F)(F)F)c(F)c2)C(=O)N2C[C@H](OCC)C[C@H]2C(=O)NC2(CC(F)(F)C2)C(=O)N(C)[C@@H](C2CCCC2)C(=O)N(C)[C@H](C(=O)N(C)C)CC(=O)N1C [PP1740] 0.053

New cases:
Let me know recorded Kd for CCC[C@H]1C(=O)N[C@@H]([C@@H](C)CC)C(=O)N(C)CC(=O)N(CCC)CC(=O)N(CCC)[C@@H](Cc2ccc(C(F)(F)F)cc2)C(=O)N(C)CC(=O)N[C@@H](CCc2ccc(C(F)(F)F)c(Cl)c2)C(=O)N2CCC[C@H]2C(=O)NC2(CCC2)C(=O)N(C)[C@@H](C2CCCC2)C(=O)N(C)[C@H](C(=O)N2CCOCC2)CC(=O)N1C [PP1949] ([NMeNva]I[Sar][NPrGly][NPrPhe(4-CF3)][Sar][hPhe(3-Cl-4-CF3)]P[Ac4c][NMeGly(cPent)][NMeD]-Morpholide; lactam N-11) , thanks. 0.92
